Field: %Inh. Provide a value for each of the compounds that follow.
Test system: SIK2
Conditions: concentration: 1 μM, replicates: in singlicate; n = 1;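 note: KINOMEscan kinase panel screen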
Give bare numbers, in %.

O=C1NC(=O)C(N2CCc3ccccc32)=C1c1cccc(Cl)c1: 0
Cn1ccc2ncnc(Oc3ccc(NC(=O)Nc4ccncc4)c(Cl)c3)c21: 0
Fc1ccc(-c2nn3c(OCC(F)(F)F)cccc3c2-c2ccncc2)cc1: 0

Quick batch: %Inh for everything below.
1. Cl.Nc1ncnc2occ(-c3ccc(NC(=O)Nc4cc(C(F)(F)F)ccc4F)cc3)c12
2. Cc1cccc(-c2nc(-c3ccc(S(C)(=O)=O)cc3)sc2-c2ccncc2)c1
3. c1ccc(-c2n[nH]cc2-c2ccnc3ccccc23)nc1
4. N#Cc1c(N2CCOCC2)sc(-c2ccn[nH]2)c1-c1ccc(Cl)cc1
5. Fc1ccc(-c2ncn(CCCN3CCOCC3)c2-c2ccccn2)cc1
6. Cc1nnc(-c2ccc3occ(-c4ccc(C(C)O)cc4)c3c2)o1 (stereo not drawn)
7. Nc1nc(-c2ccc3c(N)n[nH]c3c2)cc(N2CCCC2)n1
8. CC(=O)Nc1ccc(COc2ccc(Nc3ccnc4cc(-c5ccccn5)ccc34)cc2)cc1.Cl

[0, 0, 9, 4, 0, 18, 0, 0]

---

For each of the molecules below, state its %Inh.
Test system: CDC2L2
Conditions: concentration: 1 μM, replicates: in singlicate; n = 1

// each listed molecule needs a value for %Inh
1. C[C@@H](Oc1cc(-n2cnc3ccc(NC(=O)NC(C)(C)C)cc32)sc1C(N)=O)c1ccccc1Cl
2. N#Cc1ccc(-c2cc(-c3c[nH]nc3-c3ccccn3)ccn2)cc1
3. COc1ccc(S(=O)(=O)NC2CCN(c3cc(C)nc(Nc4cccc(C#N)c4)n3)CC2)cc1.O=C(O)C(F)(F)F
4. Cc1nnc(-c2ccc3occ(-c4ccc(C(C)O)cc4)c3c2)o1 (centres unmarked)
5. O=C(c1ccc(-c2cc(-c3c[nH]nc3-c3ccccn3)ccn2)cc1)N1CCOCC1

1: 13%; 2: 0%; 3: 37%; 4: 4%; 5: 2%

---

Test system: GAK
Settings: concentration: 1 μM, replicates: in singlicate; n = 1
valueType: %Inh (%)
Give bare numbers, in %.

CN(C(=O)c1ccc(-c2cc(-c3c[nH]nc3-c3ccccn3)ccn2)cc1)C1CCOCC1: 9
Cc1nnc(-c2ccc3occ(-c4ccc(C(C)O)cc4)c3c2)o1 (stereo not drawn): 0
O=C(c1ccc(-c2cc(-c3c[nH]nc3-c3ccccn3)ccn2)cc1)N1CCOCC1: 34
Cc1nnc(-c2ccc3ncc(-c4ccc(S(C)=O)cc4)n3c2)o1 (stereo not drawn): 9
O=C(NCCNc1ccnc(Nc2ccc(F)cc2)n1)c1cc2ccccc2s1: 0
CC(=O)Nc1ccc(COc2ccc(Nc3ccnc4cc(-c5ccccn5)ccc34)cc2)cc1.Cl: 8
COc1ccc(Nc2ncc(C#N)c(Nc3ccccc3C(N)=O)n2)cc1N1CCN(C)CC1.Cl: 98.1
O=C(NCCCN1CCOCC1)c1cccc(Nc2nccc(Nc3ccc(Oc4ccccc4)cc3)n2)c1: 33
Cl.Nc1ncnc2occ(-c3ccc(NC(=O)Nc4cc(C(F)(F)F)ccc4F)cc3)c12: 0
CCCCCc1nc2c(N)ncnc2n1CCCCC: 0

Would you be so kind as to report %Inh for each listed record?
1. O=C1NC(=O)C(N2CCc3ccccc32)=C1c1cccc(Cl)c1
2. Cc1nnc(-c2ccc(C)c(-c3ccc(C(=O)Nc4ccc(NS(C)(=O)=O)cc4)cc3)c2)o1
3. Fc1ccc(-c2ncn(CCCN3CCOCC3)c2-c2cccnc2)cc1
4. Cc1c(Cn2c(C)nn3c(=O)cc(N4CCOC(C)C4)nc23)cccc1C(F)(F)F (stereo not drawn)
5. O=C(NOCC1CC1)c1ccc(F)c(F)c1Nc1ccc(I)cc1Cl

[10, 0, 2, 0, 0]

---

System: MAP3K15
Details: concentration: 1 μM, replicates: in singlicate; n = 1
Give measured %Inh for each item. Keep answers brief.
Numbers only, in %.

Reference set (5 entries):
COc1ccc(Nc2ncc(C#N)c(Nc3ccccc3C(N)=O)n2)cc1N1CCN(C)CC1.Cl: 73
CC(C)Oc1ccc2c(-c3ccnc(Nc4ccc(N5CCN(C)CC5)cc4)n3)cnn2n1: 11
N#Cc1c(N2CCOCC2)sc(-c2ccn[nH]2)c1-c1ccc(Cl)cc1: 45
COC(=O)Nc1nc2cc(Oc3ccc(NC(=O)Nc4cc(F)ccc4F)cc3)ccc2[nH]1.Cl: 0
Cc1cccc(Cn2ccn3c(=O)cc(N4CCOCC4)nc23)c1: 0

Dear reader, for each entry below, please note its %Inh.
1. O=C(NCCCN1CCOCC1)c1cccc(Nc2nccc(Nc3ccc(Oc4ccccc4)cc3)n2)c1
2. Cc1ccc(NC(=O)c2ccnc(N3CCN(C)CC3)c2)cc1-c1ccc(C(=O)NCC2CC2)cc1

1. 0
2. 0

---

Test system: MYO3B
Details: concentration: 1 μM, replicates: in singlicate; n = 1
valueType: %Inh (%)
Numbers only, in %.

Solved cases (3 shown):
COc1cc2c(cc1OCCN1CCN(C)CC1)ncc1c3ccc(C#N)cc3[nH]c21: 0
Fc1ccc(-c2ncn(CCCN3CCOCC3)c2-c2cccnc2)cc1 [SB-211743]: 17
NS(=O)(=O)c1cccc(-c2ccc3ncc(N4CCOCC4)nc3c2)c1 [GSK1535721]: 0

The following molecules each have a reported value; give each one's %Inh.
1. C[C@@H](Oc1cc(-n2cnc3ccc(NC(=O)NC(C)(C)C)cc32)sc1C(N)=O)c1ccccc1Cl [GSK346294]
2. c1ccc(-c2n[nH]cc2-c2ccnc3ccccc23)nc1 [GW271431]
3. COc1cc2ncn(-c3cc(OCc4sccc4Cl)c(C(N)=O)s3)c2cc1OC [GSK448459]
4. COc1ccc(Nc2nccc(N3CCC(NC(=O)Nc4cc(C)ccc4C)C3)n2)cc1 (stereo not shown) [GSK1379741]
5. O=C(NCCCN1CCOCC1)c1cccc(Nc2nccc(Nc3ccc(Oc4ccccc4)cc3)n2)c1 [GW663929]
6. COc1cc2c(cc1OC[C@@H](O)CO)ncc1c3ccc(C#N)cc3[nH]c21
7. Nc1nccc(-c2c(-c3ccc(F)cc3)ncn2C2CCN(CC(F)(F)F)CC2)n1 [SB-236560]
8. COc1ccc(S(=O)(=O)NC2CCN(c3cc(C)nc(Nc4cccc(C#N)c4)n3)CC2)cc1.O=C(O)C(F)(F)F [GSK1653539]

0
0
0
0
0
0
0
0

---

Tested on: MRCKA
Settings: concentration: 1 μM, replicates: in singlicate; n = 1
For each of the compounds below, state its %Inh.
Give bare numbers, in %.

Check out these entries, answers already filled in.
COc1ccc(Nc2ncc(C#N)c(Nc3ccccc3C(N)=O)n2)cc1N1CCN(C)CC1.Cl: 44
COc1ccc(COc2cc(-n3cnc4ccccc43)sc2C(N)=O)cc1: 0
O=c1cc(N2CCOCC2)nc2n(Cc3cccc4ccccc34)ccn12: 0
O=C(NOCC1CC1)c1ccc(F)c(F)c1Nc1ccc(I)cc1Cl: 0

Now examine the next entry.
Quote MRCKA %Inh for entry `CN(C(=O)c1ccc(-c2cc(-c3c[nH]nc3-c3ccccn3)ccn2)cc1)C1CCOCC1` .
4

---

Tested on: CLK1
Details: concentration: 1 μM, replicates: in singlicate; n = 1
valueType: %Inh (%)
Numbers only, in %.

The cases that follow already have their %Inh on record.
CN1c2ccc(CNc3ccc(F)cc3)cc2-c2c(cnn2C)S1(=O)=O: 0
Cc1ccc(C(=O)NCC(N)=O)cc1-n1c(C)cc(OCc2ccc(F)cc2F)c(Br)c1=O: 0
NS(=O)(=O)CCc1cccc(Nc2nccc(-c3c(-c4cccc(NC(=O)c5c(F)cccc5F)c4)nn4ccccc34)n2)c1 [GSK336735]: 27

Using the record for NS(=O)(=O)c1cccc(-c2ccc3ncc(N4CCOCC4)nc3c2)c1 [GSK1535721] , state its measured %Inh.
11

---

Exercise: state measured %Inh for each of the compounds provided.
System: AURKA
Settings: concentration: 1 μM, replicates: in singlicate; n = 1
Give bare numbers, in %.

c1ccc(-c2n[nH]cc2-c2ccnc3ccccc23)nc1: 12

Could I get %Inh for every one of these entries?
1. COc1ccc(Nc2nccc(N3CCC(NC(=O)Nc4cc(C)ccc4C)C3)n2)cc1 (centres unmarked)
2. COc1cc2c(cc1OC[C@@H](O)CO)ncc1c3ccc(C#N)cc3[nH]c21
3. Cc1cn2c(=O)cc(N3CCOCC3)nc2n1Cc1cccc(Cl)c1Cl

1: 15; 2: 6; 3: 0

---

System: AMPK-alpha1
Construct: gene PRKAA1
Details: concentration: 1 μM, replicates: in singlicate; n = 1
valueType: %Inh (%)
Numbers only, in %.

COC(=O)Nc1nc2cc(Oc3ccc(NC(=O)Nc4cc(F)ccc4F)cc3)ccc2[nH]1.Cl [GW701424]: 0
NS(=O)(=O)c1cccc(-c2ccc3nccc(-c4cccc(S(N)(=O)=O)c4)c3c2)c1 [GW867253]: 0
O=c1cc(N2CCOCC2)nc2n(Cc3cccc(C(F)(F)F)c3)ccn12 [GSK2297543]: 4
CC(C)(CN)c1nc(-c2ccc(Cl)c(O)c2)c(-c2ccncc2)[nH]1.O=C(O)C(F)(F)F [SB-477794]: 0
Cc1cccc(Cn2ccn3c(=O)cc(N4CCOCC4)nc23)c1 [GSK2297542]: 1

Look up %Inh for the entries below, preserving their order.
1. Cl.Nc1ncnc2occ(-c3ccc(NC(=O)Nc4cc(C(F)(F)F)ccc4F)cc3)c12 [SB-707548]
2. CN1c2ccc(CNc3ccc(F)cc3)cc2-c2c(cnn2C)S1(=O)=O
3. C[C@@H](Oc1cc(-n2cnc3ccc(NC(=O)NC(C)(C)C)cc32)sc1C(N)=O)c1ccccc1Cl [GSK346294]

[5, 0, 6]

Values from paper PMC5540273
